Numbers sourced from ChEMBL document CHEMBL1201862.

// endpoint GI50 / system HCT-15

A selection of reference data follows.
MOLECULE	GI50
Cc1cc(-c2nc3cc(F)c(F)cc3s2)ccc1N	> 61.4 µM
COC(=O)C1=C(C)N(NC(=O)OC(C)(C)C)C(=O)C1=P(c1ccccc1)(c1ccccc1)c1ccccc1	> 100 µM
CC(NC(=O)NC(C)(C)C)NC(=O)C(N)CC(=O)O (stereo unspecified)	> 100 µM
Cc1cccc2c1Oc1cc(Cl)ccc1C2NC(=O)CCN1CCOCC1 (stereo unspecified)	> 100 µM
COCC1OC(S(=O)(=O)c2ccccc2)C(O)C(OC)C1OC (stereo unspecified)	> 100 µM

*Q* Identify measured GI50 corresponding to COc1nc(NC2OCC(OC(C)=O)C(OC(C)=O)C2OC(C)=O)c(-c2csc(N)n2)c(=O)n1C (stereo unspecified)
*A* > 100 µM
